molecular target: recombinant PRL-2 (Homo sapiens, UniProt Q12974); construct: 6xHis (N, cleaved yes); made in house; host or cells: E. coli One Shot BL21 Star; assay: In vitro phosphatase assay (DiFMUP hydrolysis), PRL-2; type: biochemical; conditions: FDA-approved drug screen; compared to DMSO;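 also: PRL-2 activity read as DiFMUP hydrolysis after 20 min at room temperature with drug, enzyme first pre-reduced at 4 °C for 20 min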
Sequence (Q12974 whole entry): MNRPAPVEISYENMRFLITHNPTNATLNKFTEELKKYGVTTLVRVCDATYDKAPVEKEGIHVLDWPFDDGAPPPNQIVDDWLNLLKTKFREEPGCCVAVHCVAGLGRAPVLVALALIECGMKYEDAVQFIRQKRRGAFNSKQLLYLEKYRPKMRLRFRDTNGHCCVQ
Where a name gives a salt, the structure may show the parent alone. Starred links: 1 amine or outer side, 2 acyl side, 3 side chain; linkers in the order of their positions; H or OH if unused. Positions of bridges follow the written chain, without caps; N, C: chain ends. Non-standard residues stand in square brackets, D forms with d. Residues, ends and D or L forms follow the SMILES beside them. *: point of attachment. hTyr(3S-OH,4S-OH,3'-OSO3H) = N[C@H](C(=O)O)[C@H](O)[C@@H](O)c1ccc(O)c(OS(=O)(=O)O)c1; Orn(4R-OH,5R-OH) = O=C([C@H](C[C@@H](O)[C@@H](O)N[*:3])N[*:1])[*:2]; Pro(3S-OH,4S-Me) = C[C@H]1CN[C@H](C(=O)O)[C@H]1O; X1 = CCCCCOc1ccc(-c2cc(-c3ccc(C(=O)*)cc3)no2)cc1; Gln(3R-OH) = NC(=O)C[C@@H](O)[C@H](N)C(=O)O; Hyp = O=C(O)[C@@H]1C[C@@H](O)CN1
Would you kindly list % Phosphatase Activity (compared to DMSO) PRL-2 for each of these molecules?
Answer with a number only, understood to be in %.

According to the records, this molecule CCN(CC)CCOC(=O)c1ccc(N)cc1 [Procaine HCl] displays % Phosphatase Activity (compared to DMSO) PRL-2 of 112

According to the records, this molecule O=P1(NCCCl)OCCCN1CCCl (stereo not shown) [Ifosfamide] displays % Phosphatase Activity (compared to DMSO) PRL-2 of 99

According to the records, this molecule CCCCOc1ccc(C(=O)CCN2CCCCC2)cc1 [Dyclonine HCl] displays % Phosphatase Activity (compared to DMSO) PRL-2 of 103

According to the records, this molecule O=C(O)c1cn(-c2ccc(F)cc2)c2cc(N3CCNCC3)c(F)cc2c1=O [Sarafloxacin HCl] displays % Phosphatase Activity (compared to DMSO) PRL-2 of 108

According to the records, this molecule COc1cc(OC)c(C(=O)CCCN2CCCC2)c(OC)c1.Cl [Buflomedil HCl] displays % Phosphatase Activity (compared to DMSO) PRL-2 of 118

According to the records, this molecule CCCc1ncc(C[n+]2ccccc2C)c(N)n1.Cl.[Cl-] [Amprolium HCl] displays % Phosphatase Activity (compared to DMSO) PRL-2 of 97

According to the records, this molecule CCCCOc1cc(C(=O)NCCN(CC)CC)c2ccccc2n1 [Dibucaine HCl] displays % Phosphatase Activity (compared to DMSO) PRL-2 of 108

According to the records, this molecule Nc1nc(=O)c2c([nH]1)NC[C@H](CNc1ccc(C(=O)N[C@@H](CCC(=O)[O-])C(=O)[O-])cc1)N2C=O.[Ca+2] [Calcium Levofolinate] displays % Phosphatase Activity (compared to DMSO) PRL-2 of 101

According to the records, this molecule C=C1/C(=C\C=C2/CCC[C@]3(C)[C@@H]([C@H](C)/C=C/[C@H](C)C(C)C)CC[C@@H]23)C[C@@H](O)C[C@@H]1O [Doxercalciferol] displays % Phosphatase Activity (compared to DMSO) PRL-2 of 99

According to the records, this molecule OCCN1C[C@H](O)[C@@H](O)[C@H](O)[C@H]1CO [Miglitol] displays % Phosphatase Activity (compared to DMSO) PRL-2 of 120

According to the records, this molecule CCn1cc(C(=O)O)c(=O)c2ccc(C)nc21 [Nalidixic acid] displays % Phosphatase Activity (compared to DMSO) PRL-2 of 122

According to the records, this molecule CCOC(=O)[C@H](CCc1ccccc1)N[C@H]1CCc2ccccc2N(CC(=O)O)C1=O [Benazepril HCl] displays % Phosphatase Activity (compared to DMSO) PRL-2 of 80

According to the records, this molecule NC(=O)N1c2ccccc2CC(=O)c2ccccc21 [Oxcarbazepine] displays % Phosphatase Activity (compared to DMSO) PRL-2 of 112

According to the records, this molecule Cc1[nH]c2ccccc2c1CCNCc1ccc(/C=C/C(=O)NO)cc1 [Panobinostat (LBH589)] displays % Phosphatase Activity (compared to DMSO) PRL-2 of 102

According to the records, this molecule CO[C@@H]1[C@@H](OC(N)=O)[C@@H](O)[C@H](Oc2ccc3c(O)c(NC(=O)c4ccc(O)c(CC=C(C)C)c4)c(=O)oc3c2C)OC1(C)C [Novobiocin Sodium] displays % Phosphatase Activity (compared to DMSO) PRL-2 of 87

According to the records, this molecule CCOC(=O)[C@H]1O[C@@H]1C(=O)N[C@@H](CC(C)C)C(=O)NCCC(C)C [Aloxistatin] displays % Phosphatase Activity (compared to DMSO) PRL-2 of 78

According to the records, this molecule CC(C)COc1ccc(CNC(=O)N(Cc2ccc(F)cc2)C2CCN(C)CC2)cc1 [Pimavanserin] displays % Phosphatase Activity (compared to DMSO) PRL-2 of 88

According to the records, this molecule NCC[C@H](O)C(=O)N[C@@H]1C[C@H](N)[C@@H](O[C@H]2O[C@H](CN)[C@@H](O)[C@H](O)[C@H]2O)[C@H](O)[C@H]1O[C@H]1O[C@H](CO)[C@@H](O)[C@H](N)[C@H]1O [Amikacin hydrate] displays % Phosphatase Activity (compared to DMSO) PRL-2 of 95

According to the records, this molecule Cc1onc(-c2ccccc2)c1C(=O)N[C@@H]1C(=O)N2[C@@H]1SC(C)(C)[C@@H]2C(=O)[O-].O.[Na+] [Oxacillin sodium monohydrate] displays % Phosphatase Activity (compared to DMSO) PRL-2 of 90

According to the records, this molecule NC(=O)c1cn(Cc2c(F)cccc2F)nn1 [Rufinamide] displays % Phosphatase Activity (compared to DMSO) PRL-2 of 91

According to the records, this molecule CS(=O)(=O)c1ccc([C@@H](O)[C@@H](CF)NC(=O)C(Cl)Cl)cc1 [Florfenicol] displays % Phosphatase Activity (compared to DMSO) PRL-2 of 111

According to the records, this molecule NNC(=O)c1ccncc1.Nc1ccc(C(=O)O)c(O)c1 [Pasiniazid] displays % Phosphatase Activity (compared to DMSO) PRL-2 of 97

According to the records, this molecule CCCCCOc1ccc(-c2cc(-c3ccc(C(=O)N[C@H]4C[C@@H](O)[C@@H](O)NC(=O)[C@@H]5[C@@H](O)[C@@H](C)CN5C(=O)[C@H]([C@H](O)CC(N)=O)NC(=O)[C@H]([C@H](O)[C@@H](O)c5ccc(O)c(OS(=O)(=O)[O-])c5)NC(=O)[C@@H]5C[C@@H](O)CN5C(=O)[C@H]([C@@H](C)O)NC4=O)cc3)no2)cc1.[Na+] [Micafungin Sodium] (X1-[Orn(4R-OH,5R-OH)]T[Hyp][hTyr(3S-OH,4S-OH,3'-OSO3H)][Gln(3R-OH)][Pro(3S-OH,4S-Me)]; lactam 1-C) displays % Phosphatase Activity (compared to DMSO) PRL-2 of 90

According to the records, this molecule COc1ccc2[nH]c([S+]([O-])Cc3ncc(C)c(OC)c3C)nc2c1 (stereo not shown) [Omeprazole] displays % Phosphatase Activity (compared to DMSO) PRL-2 of 96

According to the records, this molecule CC(C)N(CCNC(=O)CN1CCCC1=O)C(C)C [Pramiracetam] displays % Phosphatase Activity (compared to DMSO) PRL-2 of 88
